- Assayed System: CYP4F2 (Homo sapiens, UniProt P78329)
- Construct: purchased Corning Gentest
- Sequence (P78329 5-520): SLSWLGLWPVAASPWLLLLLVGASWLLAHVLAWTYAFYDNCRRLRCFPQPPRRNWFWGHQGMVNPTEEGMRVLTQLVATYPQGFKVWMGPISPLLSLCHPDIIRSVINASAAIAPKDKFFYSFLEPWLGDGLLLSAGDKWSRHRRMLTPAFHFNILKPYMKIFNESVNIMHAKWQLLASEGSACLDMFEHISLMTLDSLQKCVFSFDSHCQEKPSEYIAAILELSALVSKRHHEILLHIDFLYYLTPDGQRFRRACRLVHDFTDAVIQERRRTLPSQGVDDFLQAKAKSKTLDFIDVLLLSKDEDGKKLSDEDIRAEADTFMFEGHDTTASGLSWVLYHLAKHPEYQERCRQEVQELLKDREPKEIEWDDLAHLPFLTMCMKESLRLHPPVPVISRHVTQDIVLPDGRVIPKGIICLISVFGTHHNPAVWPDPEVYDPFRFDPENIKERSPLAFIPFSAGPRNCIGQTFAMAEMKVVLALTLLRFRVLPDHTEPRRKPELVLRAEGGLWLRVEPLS
- Assay Text: CYP4F2-mediated drug interaction (inhibition of CYP4F2)
- Type: in vitro ADME
- Experimental Context: substrate Compound-3 1 μM, CYP4F2 10 nM, 10 min, M4 formation; read-out: IC50, inhibition of CYP4F2 mediated metabolism of Compound-3
Observation Type: IC50 (µM)
Note: unit µM is implicit; provide only the numeric part.

For CONC(=N)c1ccc(-c2ccc(-c3ccc(C(=N)NOC)cc3)o2)cc1 [pafuramidine, reference compound] , what is its reported IC50? 0.24

---

- Assayed System: CYP4F2 (Homo sapiens)
- Construct: purchased Corning Gentest
- Assay Text: CYP4F2-mediated drug interaction (inhibition of CYP4F2)
- Type: in vitro ADME
- Experimental Context: substrate pafuramidine 1.5 μM, CYP4F2 10 nM, 5 min, DB775 formation; read-out: IC50, inhibition of CYP4F2 mediated metabolism of pafuramidine
Observation Type: pIC50
Just the number, please; pIC50 means minus log10 of the concentration in mol/L.

Param readout = pIC50; param system = CYP4F2 (Homo sapiens); param query = CCCCCCCCCCCCCCCCCCOCCOP(=O)(O)OCC1OC(n2ccc(N)nc2=O)C(F)(F)C1O (stereo not shown) [Compound-3] ; response: value 7.00
